System: Bacillus subtilis
Experiment: cleaved RNA product abundance (RNA/gDNA barcode ratio) relative to median wild-type variant (ratio to wild type); higher = more accumulation of the downstream cleavage product
Details: experiment (reporter, strain, medium): exp 2b: truncated aprE reporter, strain BJT200; cleavage site: cggR-gapA (positions -7 to +36 mutated)
If the reported cleaved RNA product abundance equals or exceeds 0.2, assign Satisfied. If not, assign Not satisfied.

>>> df
                               sequence_data  qualitative_label
 0  ACAGACGAAGGAGCCGCAAAGAAGTTATTAAGGGAAGAATAATTCCTCAATATAAATATCTCTCACTTATTTAAA      Not satisfied
 1  ACAGACGAAGGAGCCGCAAAGAAGTTATTAAGGCATGAATAATCACTCAATATAAATATCTCTCACTTATTTAAA      Not satisfied
 2  ACAGACGAAGGAGCCGCAAATAAGTTAATAAGGGATGAATAATCCCCCAATATAAATATCTCTCACTTATTTAAA          Satisfied
 3  ACAGACGAAGGAGCCGCAAAGAAGTTATTTAGGGATGAATAATCCCTCAATATAAATATCTCTCACTTATTTAAA          Satisfied
 4  ACAGACGAAGGAGCCGCAAAGAAGTTATTAAGAGATGAATAATCCGTCAATATAAATATCTCTCACTTATTTAAA      Not satisfied
 5  ACAGACGAAGGAGCCGCAAAGAAGTTATTAAAGGATGAATAATCCCTAAATATAAATATCTCTCACTTATTTAAA          Satisfied
 6  ACAGACGAAGGAGCCGCAAAGAAGTTATTAAGAGATGAATAGTCCCTCAATATAAATATCTCTCACTTATTTAAA      Not satisfied
 7  ACAGACGAAGGAGCCGCAAAGAAGTTATTAAGGGATCAAAAATCCCTCAATATAAATATCTCTCACTTATTTAAA          Satisfied
 8  ACAGACGAAGGAGCCGCAAAGAAGTTATTAAGGGATGAATAATCCCTCACTATAAATAACTCTCACTTATTTAAA      Not satisfied
 9  ACAGACGAAGGAGCCGCAAAGAAATTATTAAGGGATGATTAATCCCTCAATATAAATATCTCTCACTTATTTAAA          Satisfied
10  ACAGACGAAGGAGCCGCAAAGAAGTTATTAAGGCATGAATTATCCCTCAATATAAATATCTCTCACTTATTTAAA      Not satisfied
11  ACAGACGAAGGAGCCGCAAAAAAGTTATTAAGGGATGAATAATCCCTCAATATAGATATCTCTCACTTATTTAAA          Satisfied
12  ACAGACGAAGGAGCCGCAAAGAAGTTATTAAGGGATGAATAATCCCTCATATAAATATCTCTCACTTATTTAAAG          Satisfied
13  ACAGACGAAGGAGCCGCAAAGAAGTTATTAAGGCATGAATAATCCCCCAATATAAATATCTCTCACTTATTTAAA      Not satisfied
14  ACAGACGAAGGAGCCGCAATGAAGTTATTAAGGTATGAATAATCCCTCAATATAAATATCTCTCACTTATTTAAA      Not satisfied
15  ACAGACGAAGGAGCCGCAAAGAAGTTATTAAGGGATGAATAATCCCTCGTTATAAATATCTCTCACTTATTTAAA      Not satisfied
16  ACAGACGAAGGAGCCGCAAAGAAGTTACTAAAGGATGAATAATCCCTCAATATAAATATCTCTCACTTATTTAAA      Not satisfied
17  ACAGACGAAGGAGCCGCAAAGAAGTTATTAAGGTATAAATAATCCCTCAATATAAATATCTCTCACTTATTTAAA      Not satisfied
18  ACAGACGAAGGAGCCGCATAGAAGTTATTAAGGGATGAATAATCTCTCAATATAAATATCTCTCACTTATTTAAA          Satisfied
19  ACAGACGAAGGAGCCGCAAATAAGTAATTAAGGGATGAATAATCCCTCAATATAAATATCTCTCACTTATTTAAA          Satisfied
20  ACAGACGAAGGAGCCGCAAAGAAGTTATTAAGAGATAAATAATTCCTCAATATAAATATCTCTCACTTATTTAAA      Not satisfied
21  ACAGACGAAGGAGCCGCAAAGATGTTATCAAGGGATGAATAATCCCTCAATATAAATATCTCTCACTTATTTAAA          Satisfied
22  ACAGACGAAGGAGCCGCAAAGAAGTTATTAATGGATGAATAGTCCCTCAATATAAATATCTCTCACTTATTTAAA      Not satisfied
23  ACAGACGAAGGAGCCGCAACGAAGTTATTAAGGGATGAATAATCCCTCAATATAAATAACTCTCACTTATTTAAA          Satisfied
24  ACAGACGAAGGAGCCGCAAAAAAGTTATTAAGGGATGAATAATCCTTCAATATAAATATCTCTCACTTATTTAAA          Satisfied
25  ACAGACGAAGGAGCCGCAAAGAAGTTATTAAGGGATGAATAATCCCACAATATGAATATCTCTCACTTATTTAAA      Not satisfied
26  ACAGACGAAGGAGCCGCAAAGAAGTTATTAAGCGATGAATAATCCCTCATAATAAATATCTCTCACTTATTTAAA      Not satisfied
27  ACAGACGAAGGAGCCGCAAAGAAGTTATAAAGGGATGCATAATCCCTCAATATAAATATCTCTCACTTATTTAAA          Satisfied
28  ACAGACGAAGGAGCCGCAAAGAAGTTATTAAGGGATGAATGATCCCTCAATATAAATATCTCTCACTTATTTAAA          Satisfied
